Below, each entry is listed with its recorded GBA EC50 Ratio (vs PYY(3-36)), [35S]GTPγS.
- test-system: human Y2 receptor (human) (UniProt P49146)
- Sequence (P49146 whole entry): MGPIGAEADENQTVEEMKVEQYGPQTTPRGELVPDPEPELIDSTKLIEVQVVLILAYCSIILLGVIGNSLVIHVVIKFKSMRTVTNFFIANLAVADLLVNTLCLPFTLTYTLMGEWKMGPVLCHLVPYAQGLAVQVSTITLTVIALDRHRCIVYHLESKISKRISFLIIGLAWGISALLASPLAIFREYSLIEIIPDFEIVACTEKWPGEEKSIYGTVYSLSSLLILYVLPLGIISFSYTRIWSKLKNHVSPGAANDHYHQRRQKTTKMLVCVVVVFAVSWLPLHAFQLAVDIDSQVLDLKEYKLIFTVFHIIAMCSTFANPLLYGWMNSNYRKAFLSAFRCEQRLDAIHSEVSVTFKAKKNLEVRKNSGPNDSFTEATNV
- assay-details: cell-based or functional assay
Non-standard residues stand in square brackets, D forms with d. *: point of attachment. Phe(4-NH2) = Nc1ccc(C[C@H](N)C(=O)O)cc1; Cha = N[C@@H](CC1CCCCC1)C(=O)O; Isobutyryl = CC(C)C(=O)*; Abu = CC[C@H](N)C(=O)O; Aib = CC(C)(N)C(=O)O; Bz = O=C(c1ccccc1)*
value-kind: GBA EC50 Ratio (vs PYY(3-36)), [35S]GTPγS

- Isobutyryl-R[Abu][Cha][Cha]NH[Aib]TRQR[Cha]-NH2 (SMILES CC[C@H](NC(=O)[C@H](CCCNC(=N)N)NC(=O)C(C)C)C(=O)N[C@@H](CC1CCCCC1)C(=O)N[C@@H](CC1CCCCC1)C(=O)N[C@@H](CC(N)=O)C(=O)N[C@@H](Cc1c[nH]cn1)C(=O)NC(C)(C)C(=O)N[C@H](C(=O)N[C@@H](CCCNC(=N)N)C(=O)N[C@@H](CCC(N)=O)C(=O)N[C@@H](CCCNC(=N)N)C(=O)N[C@@H](CC1CCCCC1)C(N)=O)[C@@H](C)O) [Isobutanoyl-[Abu26, Cha27,28,36, His30, Aib31]-PYY(25-36)]: 20
- Bz-RH[Cha]IN[Phe(4-NH2)]ITRQR[Cha]-NH2 (SMILES CC[C@H](C)[C@H](NC(=O)[C@H](CC1CCCCC1)NC(=O)[C@H](Cc1c[nH]cn1)NC(=O)[C@H](CCCNC(=N)N)NC(=O)c1ccccc1)C(=O)N[C@@H](CC(N)=O)C(=O)N[C@@H](Cc1ccc(N)cc1)C(=O)N[C@H](C(=O)N[C@H](C(=O)N[C@@H](CCCNC(=N)N)C(=O)N[C@@H](CCC(N)=O)C(=O)N[C@@H](CCCNC(=N)N)C(=O)N[C@@H](CC1CCCCC1)C(N)=O)[C@@H](C)O)[C@@H](C)CC) [Benzoyl-[Cha27,36, Ile28,31, Phe(4NH2)30]-PYY(25-36)]: 6.6

Origin of the recorded values: patent US20120172293A1
